Assay: total protein half-life in vivo (active degradation + dilution); higher = more stable protein
Details: wild type E. coli NCM3722; growth: P-lim chemostat; doubling time 6 h
For each record, write down the corresponding total protein half-life in vivo.
Provide the reading as a plain figure in h.

Name the recorded total protein half-life in vivo for MQNRLTIKDIARLSGVGKSTVSRVLNNESGVSQLTRERVEAVMNQHGFSPSRSARAMRGQSDKVVAIIVTRLDSLSENLAVQTMLPAFYEQGYDPIMMESQFSPQLVAEHLGVLKRRNIDGVVLFGFTGITEEMLAHWQSSLVLLARDAKGFASVCYDDEGAIKILMQRLYDQGHRNISYLGVPHSDVTTGKRRHEAYLAFCKAHKLHPVAALPGLAMKQGYENVAKVITPETTALLCATDTLALGASKYLQEQRIDTLQLASVGNTPLMKFLHPEIVTVDPGYAEAGRQAACQLIAQVTGRSEPQQIIIPATLS . 4.72

Another: MLKIIRAGMYTTVQDGGRHGFRQSGISHCGALDMPALRIANLLVGNDANAPALEITLGQLTVEFETDGWFALTGAGCEARLDDNAVWTGWRLPMKAGQRLTLKRPQHGMRSYLAVAGGIDVPPVMGSCSTDLKVGIGGLEGRLLKDGDRLPIGKSKRDSMEAQGVKQLLWGNRIRALPGPEYHEFDRASQDAFWRSPWQLSSQSNRMGYRLQGQILKRTTDRELLSHGLLPGVVQVPHNGQPIVLMNDAQTTGGYPRIACIIEADMYHLAQIPLGQPIHFVQCSLEEALKARQDQQRYFEQLAWRLHNEN 5.79
